Tested on: HOP-62 NSCLC
Assay: NCI tumour cell line growth inhibition, 48 h
Measured TGI of individual entries
ASSAY_ENDPOINT: TGI

                                    compound  target_or_system    result
 0  COC(=O)c1cc(-c2ccc(OC)c(OC)c2)oc1-c1ccc(OC)c(OC)c1      HOP-62 NSCLC  > 100 µM
 1          NC(=O)SCC(=O)Nc1ccc2cccc3c2c1CC3      HOP-62 NSCLC  > 100 µM
 2  Cc1ccccc1-n1c(=O)sc2c(=O)n(-c3ccccc3)c(=S)[nH]c21      HOP-62 NSCLC  > 100 µM
 3            O=C(NNC(=O)c1ccccc1O)c1ccccc1O      HOP-62 NSCLC  > 100 µM
 4  CN(C)CC1CCC(=C2CCCC2)C1=O (stereo unspecified)      HOP-62 NSCLC   19.1 µM
 5  Nc1ncnc2c1ncn2C1OC(CSCc2ccc(Cl)cc2)C(O)C1O (stereo unspecified)      HOP-62 NSCLC   64.3 µM
 6  CCOC(=O)NC1C2CC(=O)C(O2)C1OCc1ccccc1 (stereo unspecified)      HOP-62 NSCLC  > 100 µM
 7  Cc1c(C(=O)OCc2ccccc2)[n+](=O)c2ccccc2n1[O-]      HOP-62 NSCLC   61.2 µM
 8  COc1ccc2c(c1)CC[C@@H]1[C@@H]2CC[C@]2(C)C(=O)/C(=C/c3ccc(C#N)cc3)C[C@@H]12      HOP-62 NSCLC  > 100 µM
 9  COc1ccccc1N1C(=O)/C(=C\c2cc(OC)c(OC)c(OC)c2)SC1c1ccccc1 (stereo unspecified)      HOP-62 NSCLC  > 100 µM
10  COc1ccc(C2CC(c3cc(Cl)c(C)cc3O)=NN2c2ccc(S(N)(=O)=O)cc2)cc1OC (stereo unspecified)      HOP-62 NSCLC   14.1 µM

----------
# maps each entry to its GI50
Test system: OVCAR-8 ovarian
Assay: NCI tumour cell line growth inhibition, 48 h
ASSAY_ENDPOINT: GI50

In [3]: df
Out[3]:
                                   compound  assay_endpoint    result
0  O=S1CCN(Cc2ccc(-c3ccc4ncnc(Nc5ccc(OCc6ccccc6)c(Cl)c5)c4c3)o2)CC1            GI50   11.7 µM
1             Cn1ncc2c(Sc3ccc(Cl)cc3)ncnc21            GI50  > 100 µM
2  CCCCCCCCc1ccc(OCCOCC[N+](C)(C)CC)cc1 (tested in a mixture with another compound)            GI50   3.81 µM
3  O=C1Nc2ccccc2/C1=C/C(=N/c1nnc(-c2ccccc2)s1)c1ccccc1            GI50   2.77 µM
4  O=C(NCCCCNC(=O)OCc1ccc2c(Cl)cc(Cl)c(O)c2n1)OCc1ccc2c(Cl)cc(Cl)c(O)c2n1            GI50  0.458 µM
5  Cc1cc(C)c(-c2cc(O)c(-c3c(C)cc(C)cc3C)cc2O)c(C)c1            GI50   5.37 µM

----------
Tested on: LOX IMVI melanoma
Test: NCI tumour cell line growth inhibition, 48 h
In this section, each of the compounds is paired with its reported GI50.
ASSAY_ENDPOINT: GI50

>>> df
                               smiles_input   result
0  CCN1CCC(Oc2c(C#N)ncc3[nH]c4ncccc4c23)CC1  5.72 µM
1             Cn1ncc2c(Sc3ccc(Cl)cc3)ncnc21    12 µM
2  O=C1Nc2ccccc2/C1=C/C(=N/c1nnc(-c2ccccc2)s1)c1ccccc1  1.61 µM
3  C[C@@]12C(=O)OC(=O)[C@]1(C)[C@H]1CC[C@@H]2O1  1.44 µM
4  O=S1CCN(Cc2ccc(-c3ccc4ncnc(Nc5ccc(OCc6cccc(F)c6)c(Cl)c5)c4c3)o2)CC1  4.65 µM

Reference for the values: PubChem BioAssay (NCI)
